Each recorded value in this set is attributed to the supplement of paper PMC5998384.

# melting temperature per entry
# Tested on: HeLa Kyoto;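 note: HeLa Kyoto cells synchronized by double thymidine or nocodazole block, proteins quantified by TMT10plex mass spectrometry, three independent biological replicates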
# protocol_description: melting temperature (median over replicates), in situ; higher = more thermally stable
# recorded_conditions: cell cycle stage: G1/S

Below, each entry is followed by its recorded melting temperature result.
input_sequence="MAQLGAVVAVASSFFCASLFSAVHKIEEGHIGVYYRGGALLTSTSGPGFHLMLPFITSYKSVQTTLQTDEVKNVPCGTSGGVMIYFDRIEVVNFLVPNAVYDIVKNYTADYDKALIFNKIHHELNQFCSVHTLQEVYIELFDQIDENLKLALQQDLTSMAPGLVIQAVRVTKPNIPEAIRRNYELMESEKTKLLIAAQKQKVVEKEAETERKKALIEAEKVAQVAEITYGQKVMEKETEKKISEIEDAAFLAREKAKADAECYTAMKIAEANKLKLTPEYLQLMKYKAIASNSKIYFGKDIPNMFMDSAGSVSKQFEGLADKLSFGLEDEPLETATKEN [ERLIN2]" value_measured="52.7 °C"
input_sequence="MSDDDSRASTSSSSSSSSNQQTEKETNTPKKKESKVSMSKNSKLLSTSAKRIQKELADITLDPPPNCSAGPKGDNIYEWRSTILGPPGSVYEGGVFFLDITFTPEYPFKPPKVTFRTRIYHCNINSQGVICLDILKDNWSPALTISKVLLSICSLLTDCNPADPLVGSIATQYMTNRAEHDRMARQWTKRYAT [UBE2E1]" value_measured="48.5 °C"
input_sequence="MSLRCGDAARTLGPRVFGRYFCSPVRPLSSLPDKKKELLQNGPDLQDFVSGDLADRSTWDEYKGNLKRQKGERLRLPPWLKTEIPMGKNYNKLKNTLRNLNLHTVCEEARCPNIGECWGGGEYATATATIMLMGDTCTRGCRFCSVKTARNPPPLDASEPYNTAKAIAEWGLDYVVLTSVDRDDMPDGGAEHIAKTVSYLKERNPKILVECLTPDFRGDLKAIEKVALSGLDVYAHNVETVPELQSKVRDPRANFDQSLRVLKHAKKVQPDVISKTSIMLGLGENDEQVYATMKALREADVDCLTLGQYMQPTRRHLKVEEYITPEKFKYWEKVGNELGFHYTASGPLVRSSYKAGEFFLKNLVAKRKTKDL [LIAS]" value_measured="52.1 °C"

Task: # query: melting temperature of entry MKLIILEHYSQASEWAAKYIRNRIIQFNPGPEKYFTLGLPTGSTPLGCYKKLIEYYKNGDLSFKYVKTFNMDEYVGLPRDHPESYHSFMWNNFFKHIDIHPENTHILDGNAVDLQAECDAFEEKIKAAGGIELFVGGIGPDGHIAFNEPGSSLVSRTRVKTLAMDTILANARFFDGELTKVPTMALTVGVGTVMDAREVMILITGAHKAFALYKAIEEGVNHMWTVSAFQQHPRTVFVCDEDATLELKVKTVKYFKGLMLVHNKLVDPLYSIKEKETEKSQSSKKPYSD [GNPDA1]
Result: 61.5 °C

Task: # query: melting temperature of entry MADEIAKAQVARPGGDTIFGKIIRKEIPAKIIFEDDRCLAFHDISPQAPTHFLVIPKKHISQISVAEDDDESLLGHLMIVGKKCAADLGLNKGYRMVVNEGSDGGQSVYHVHLHVLGGRQMHWPPG [HINT1]
Result: 56.4 °C

Task: # query: melting temperature of entry MGLELFLDLVSQPSRAVYIFAKKNGIPLELRTVDLVKGQHKSKEFLQINSLGKLPTLKDGDFILTESSAILIYLSCKYQTPDHWYPSDLQARARVHEYLGWHADCIRGTFGIPLWVQVLGPLIGVQVPKEKVERNRTAMDQALQWLEDKFLGDRPFLAGQQVTLADLMALEELMQPVALGYELFEGRPRLAAWRGRVEAFLGAELCQEAHSIILSILEQAAKKTLPTPSPEAYQAMLLRIARIP [GSTT2]
Result: 54.9 °C
